FYI, the data here is from PubChem BioAssay AID2060498.

System: 171881-019-R-J1-PDC tumor spheroids, viability;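 note: spheroids exposed to compounds for 7 days; 100% = DMSO vehicle control viability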
Assay: Anticancer human tumor 171881-019-R-J1-PDC patient-derived invasive breast carcinoma cell line growth inhibition [GQUAD]
Settings: second compound 1 µM; first compound 1 µM; active compounds read low; spheroids with HUVEC and MSC
For each record, write down the corresponding viability, T/C.

For every record below, what is its viability, T/C?
1. O=C(NO)c1cnc(N2CCN(S(=O)(=O)c3ccc4ccccc4c3)CC2)nc1 + CN(C)c1ccc(Nc2c3ccc(NC(=O)CCN4CCCC4)cc3nc3cc(NC(=O)CCN4CCCC4)ccc23)cc1
2. CC(C)n1c(=O)n(C)c2cnc3cc(F)c(-c4ccc(OCCCN5CCCCC5)nc4)cc3c21 + Cc1cnc(CNC(=O)c2c(=O)c3ccc(N4CCCN(C)CC4)nc3n3c2sc2ccccc23)cn1
3. C=CC(=O)N1CCN(c2nc(=O)n(-c3c(C)ccnc3C(C)C)c3nc(-c4c(O)cccc4F)c(F)cc23)C(C)C1 (stereo not given) + Cc1cnc(CNC(=O)c2c(=O)c3ccc(N4CCCN(C)CC4)nc3n3c2sc2ccccc23)cn1
4. O=C(c1cc(Cc2n[nH]c(=O)c3ccccc23)ccc1F)N1CCN(C(=O)C2CC2)CC1 + Cc1cnc(CNC(=O)c2c(=O)c3ccc(N4CCCN(C)CC4)nc3n3c2sc2ccccc23)cn1
5. C=CC(=O)N1CCN(c2nc(=O)n(-c3c(C)ccnc3C(C)C)c3nc(-c4c(O)cccc4F)c(F)cc23)C(C)C1 (stereo not given) + CN(C)c1ccc(Nc2c3ccc(NC(=O)CCN4CCCC4)cc3nc3cc(NC(=O)CCN4CCCC4)ccc23)cc1

Given back:
1: 0.1%; 2: 57.7%; 3: 78.1%; 4: 58.6%; 5: 17.1%
